Origin of the recorded values: PubChem BioAssay (NCI)

System: DMS 273 small cell lung
Assay: NCI tumour cell line growth inhibition, 48 h

>  <Molecule>
CCOC(=O)C1=C(C)C2C3C(=O)NC(=O)C3C1(C)C1C(=O)NC(=O)C21 (stereo not given)

>  <TGI>
> 100 µM

$$$$
>  <Molecule>
N=c1oc2cc(O)c(O)cc2cc1C(N)=O

>  <TGI>
> 100 µM

$$$$
>  <Molecule>
S=C(NCCCCCCNC(=S)Nc1c2ccccc2nc2ccccc12)Nc1c2ccccc2nc2ccccc12

>  <TGI>
> 100 µM

$$$$
>  <Molecule>
COc1ccc(C(=O)O)c2c(=O)c3ccccc3[nH]c12

>  <TGI>
> 100 µM

$$$$
>  <Molecule>
O[C@H]1[C@H]2[C@H](O)CCCN2C[C@H]1O

>  <TGI>
> 100 µM

$$$$
>  <Molecule>
NC(=S)Nc1nnc(-c2ccc(-c3nnc(NC(N)=S)o3)cc2)o1

>  <TGI>
> 100 µM

$$$$
>  <Molecule>
CN(C)CCNc1c([N+](=O)[O-])cc2c3c(cccc13)C(=O)N(CCN(C)C)C2=O

>  <TGI>
2.95 µM

$$$$
>  <Molecule>
CC[N+](CC)(CC)Cc1cn(S(=O)(=O)c2ccccc2)c2ccccc12

>  <TGI>
> 100 µM

$$$$
>  <Molecule>
CC1=C(N(C)C)C(=O)c2nc3n(c2C1=O)CCC3OC(N)=O (stereo not given)

>  <TGI>
29.3 µM

$$$$
>  <Molecule>
CCC12CC[C@H](C#N)N3CCc4c(n(c5ccccc45)C(=O)C1)C32 (stereo not given in full)

>  <TGI>
19 µM

$$$$
